I'd appreciate it if you could supply log10 EC50 values for the items below.
Biological target: CFTR ΔF508 (Homo sapiens, UniProt P13569, DEL508-508)
Construct: bronchial epithelial cells isolated from CF patients homozygous for the CFTR ΔF508 mutation; McGill University; Asterand; University of North Carolina hAEC-CF; host or cells: primary human bronchial epithelial cells from CF patients homozygous for ΔF508, differentiated at air-liquid interface
Sequence (P13569 with tags, fused parts or gaps DEL508-508): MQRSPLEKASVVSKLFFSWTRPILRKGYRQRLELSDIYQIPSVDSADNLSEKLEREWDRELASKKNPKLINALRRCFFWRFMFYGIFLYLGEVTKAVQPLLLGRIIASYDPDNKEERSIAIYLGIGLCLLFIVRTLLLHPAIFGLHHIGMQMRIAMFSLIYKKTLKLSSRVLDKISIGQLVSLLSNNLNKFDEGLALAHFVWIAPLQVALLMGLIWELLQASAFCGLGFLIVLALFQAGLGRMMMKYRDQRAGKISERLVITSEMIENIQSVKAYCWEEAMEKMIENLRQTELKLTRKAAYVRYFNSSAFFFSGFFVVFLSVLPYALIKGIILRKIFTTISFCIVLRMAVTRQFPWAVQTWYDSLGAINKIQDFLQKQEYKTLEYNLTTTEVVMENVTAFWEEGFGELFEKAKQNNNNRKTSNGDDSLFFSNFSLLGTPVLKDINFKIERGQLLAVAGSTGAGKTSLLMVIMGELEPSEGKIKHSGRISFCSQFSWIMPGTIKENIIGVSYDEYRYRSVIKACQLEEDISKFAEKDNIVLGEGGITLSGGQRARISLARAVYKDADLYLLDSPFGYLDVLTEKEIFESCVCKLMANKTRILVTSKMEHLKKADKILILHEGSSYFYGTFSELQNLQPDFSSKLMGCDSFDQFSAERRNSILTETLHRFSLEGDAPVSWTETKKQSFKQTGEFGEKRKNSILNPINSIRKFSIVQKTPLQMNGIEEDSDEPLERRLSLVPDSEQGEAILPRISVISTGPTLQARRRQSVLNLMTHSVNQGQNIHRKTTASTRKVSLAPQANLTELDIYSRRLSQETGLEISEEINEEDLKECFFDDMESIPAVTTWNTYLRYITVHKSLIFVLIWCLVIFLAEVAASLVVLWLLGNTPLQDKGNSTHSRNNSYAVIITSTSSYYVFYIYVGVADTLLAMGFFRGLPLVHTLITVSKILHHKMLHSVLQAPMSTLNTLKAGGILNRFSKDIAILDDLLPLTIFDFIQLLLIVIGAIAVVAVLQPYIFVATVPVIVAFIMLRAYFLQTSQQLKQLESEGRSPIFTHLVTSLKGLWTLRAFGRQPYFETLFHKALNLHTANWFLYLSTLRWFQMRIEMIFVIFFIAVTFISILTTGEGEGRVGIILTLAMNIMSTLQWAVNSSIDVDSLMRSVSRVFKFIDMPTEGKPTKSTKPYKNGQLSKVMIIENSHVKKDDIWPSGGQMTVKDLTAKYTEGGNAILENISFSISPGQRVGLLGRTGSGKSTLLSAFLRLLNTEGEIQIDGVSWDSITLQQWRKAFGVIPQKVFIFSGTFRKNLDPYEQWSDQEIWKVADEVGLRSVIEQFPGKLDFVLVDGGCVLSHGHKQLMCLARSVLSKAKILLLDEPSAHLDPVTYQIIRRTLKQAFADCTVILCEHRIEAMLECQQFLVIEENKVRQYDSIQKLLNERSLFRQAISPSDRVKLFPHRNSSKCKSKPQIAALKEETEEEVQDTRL
Assay: Chronic TECC assay, primary bronchial epithelial cells of CF patients homozygous for CFTR ΔF508 (corrector, co-corrector and potentiator)
Type: cell-based
Settings: chronic TECC; AUC = full area under the curve upon forskolin stimulation; read-out: EC50 (nM) (AUC**)
Scale: decimal log of EC50, EC50 in nM.

Provide log10 EC50 values for the following items, in order.
1. COC(C)(C)C1CCN(c2cc(C(=O)NS(C)(=O)=O)nc3c2c(C(C)C)nn3-c2ccc(F)cc2)CC1
2. COCCN(CCOC)c1ccc(-c2cc(C(=O)NS(C)(=O)=O)nc3c2c(C2CCC2)nn3-c2ccccc2)cn1
3. COCCS(=O)(=O)NC(=O)c1cc(-c2ccc(N3CCOCC3)cc2)c2c(OC(C)C)nn(-c3ccccc3)c2n1

1. 1.60
2. 1.79
3. 1.75

====

Molecular target: ΔF508-CFTR (Homo sapiens, UniProt P13569, DEL508-508)
Construct: host or cells: CFBE41o-, doxycycline-inducible
Test: CFTR cell surface levels using HRP-tagged ΔF508-CFTR expressing CFBE cells, in the presence of a co-corrector
Format: cell-based
Conditions: HRP-tagged ΔF508-CFTR CFBE cells, in the presence of 3 μM co-corrector; read-out: EC50
Source text: Measuring CFTR Cell Surface Levels Using HRP-Tagged ΔF508-CFTR Expressing CFBE Cells The HRP-tagged ΔF508-CFTR cell assay measures the expression of CFTR-ΔF508 at the plasma membrane. […] When HRP-tagged ΔF508-CFTR is present at the plasma membrane, the HRP enzyme activity can be measured. The amount of CFTR-ΔF508 that can be rescued to the plasma membrane is correlated with the amount of functional enzyme that can be measured. […]
assay_readout: EC50 (µM)
Give bare numbers, in µM.

Solved entries:
>>> df
                                   compound  measured_value
0  COC1CCN(S(=O)(=O)NC(=O)c2cc(N3CCC(N4CCOCC4)CC3)c3c(C4CCC4)nn(-c4ccc(F)cc4)c3n2)C1 (stereo not shown)           0.358
1  COCC1CCN(c2cc(C(=O)NS(=O)(=O)CCCN(C)C)nc3c2c(C(C)C)nn3-c2ccc(F)cc2)CC1           0.536
2  COCCS(=O)(=O)NC(=O)c1cc(N2CCN(CC(F)(F)F)CC2)c2c(C3CCC3)nn(-c3ccccc3)c2n1           0.124

Consider the record given below.
Query EC50 for CS(=O)(=O)NC(=O)c1cc(-c2ccc(N3CCC(C#N)CC3)nc2)c2c(C3CCC3)nn(C3CCCCC3)c2n1
0.344

====

Biological target: CFTR ΔF508 (Homo sapiens, UniProt P13569, DEL508-508)
Construct: bronchial epithelial cells isolated from CF patients homozygous for the CFTR ΔF508 mutation; McGill University; Asterand; University of North Carolina hAEC-CF; host or cells: primary human bronchial epithelial cells from CF patients homozygous for ΔF508, differentiated at air-liquid interface
Assay: Chronic TECC assay, primary bronchial epithelial cells of CF patients homozygous for CFTR ΔF508 (corrector, co-corrector and potentiator)
Assay type: cell-based
Details: chronic TECC; AUC = full area under the curve upon forskolin stimulation; read-out: EC50 (nM) (AUC**)
I'd appreciate it if you could supply EC50 values for the items below.
Answers are plain numbers, in nM.

                            smiles_notation  display_unit  measured_value
0  COCCS(=O)(=O)NC(=O)c1cc(N2CCC(CCN3CCOCC3)CC2)c2c(C3CCC3)nn(-c3ccc(F)cc3)c2n1            nM            28.4

Provide EC50 values for the following items, in order.
1. COC1CCN(C2CCN(c3cc(C(=O)NS(=O)(=O)N4CCC4)nc4c3c(C3CCC3)nn4-c3ccc(F)cc3)CC2)CC1
2. CC(C)Oc1nn(C2CCCCC2)c2nc(C(=O)NS(C)(=O)=O)cc(-c3ccc(CN4CC(N(C)C)C4)cc3)c12

[29.3, 204]

====

Target: ΔF508-CFTR (Homo sapiens, UniProt P13569, DEL508-508)
Construct: host or cells: CFBE41o-, doxycycline-inducible
Experiment: CFTR cell surface levels using HRP-tagged ΔF508-CFTR expressing CFBE cells, in the presence of a co-corrector
Type: cell-based
Conditions: HRP-tagged ΔF508-CFTR CFBE cells, in the presence of 3 μM co-corrector
The label depends only on % Activation: condition met if it is at least 400%, condition not met if it is smaller.

Reported % Activation at or above 400%? COCC1CCN(c2cc(C(=O)NS(=O)(=O)N3CCN(C)CC3)nc3c2c(C2CCC2)nn3-c2ccccc2)CC1
condition not met

Reported % Activation at or above 400%? COCCOCC1(F)CCCN(c2cc(C(=O)NS(C)(=O)=O)nc3c2c(C2CCC2)nn3-c2ccccc2)C1 (centres unmarked)
condition met

Reported % Activation at or above 400%? CCCN(CC)S(=O)(=O)NC(=O)c1cc(N2CCC(COC)CC2)c2c(C3CCC3)nn(-c3ccccc3)c2n1
condition met

Reported % Activation at or above 400%? COCC1CCN(c2cc(C(=O)NS(=O)(=O)N3CCC[C@H]3C(=O)N3CCN(C)CC3)nc3c2c(C2CCC2)nn3-c2ccccc2)CC1
condition not met

Reported % Activation at or above 400%? CCS(=O)(=O)NC(=O)c1cc(-c2ccc(N3CCOCC3)nc2)c2c(C)nn(-c3ccc(F)cc3F)c2n1
condition met

Reported % Activation at or above 400%? O=C(NS(=O)(=O)CCO)c1cc(N2CCC(N3CCOCC3)CC2)c2c(C3CCC3)nn(-c3ccc(F)cc3)c2n1
condition met

====

Target: ΔF508-CFTR (Homo sapiens, UniProt P13569, DEL508-508)
Construct: host or cells: CFBE41o-, doxycycline-inducible
Test: CFTR cell surface levels using HRP-tagged ΔF508-CFTR expressing CFBE cells, in the presence of a co-corrector
Assay type: cell-based
Conditions: HRP-tagged ΔF508-CFTR CFBE cells, in the presence of 3 μM co-corrector; read-out: EC50
I'd appreciate it if you could supply pEC50 values for the items below.
Answers are plain numbers, as −log10 of the molar value.

Solved entries:
In [3]: df
Out[3]:
                                   compound  assay_readout  measured_value
0  COC1CCN(c2cc(C(=O)NS(C)(=O)=O)nc3c2c(C(C)C)nn3-c2cccc(N(C)C)c2)CC1          pEC50            6.64
1  COC1CCN(c2cc(C(=O)NS(C)(=O)=O)nc3c2c(C(C)C)nn3-c2ccnc(N3CCOCC3)c2)CC1          pEC50            7.16
2  CN(C)S(=O)(=O)NC(=O)c1cc(N2CCC(N3CCC(C#N)C3)CC2)c2c(C3CCC3)nn(-c3ccc(F)cc3)c2n1 (stereo not shown)          pEC50            7.37
3  CCOC(=O)N1CCC(NS(=O)(=O)NC(=O)c2cc(N3CCC(COC)CC3)c3c(C4CCC4)nn(-c4ccccc4)c3n2)CC1          pEC50            7.68
4  CCOc1nccc(-n2nc(C3CCC3)c3c(N4CCC(N5CCOCC5)CC4)cc(C(=O)NS(=O)(=O)N(C)C)nc32)n1          pEC50            6.51

Provide pEC50 values for the following items, in order.
1. COCC1CCN(c2cc(C(=O)NS(C)(=O)=O)nc3c2c(C(C)C)nn3-c2ccc(F)cc2)CC1
2. CN(C)S(=O)(=O)NC(=O)c1cc(N2CCC(N3CCCCC3)CC2)c2c(C3CCC3)nn(-c3ccc(F)cc3)c2n1

[6.39, 6.60]

====

Molecular target: ΔF508-CFTR (Homo sapiens, UniProt P13569, DEL508-508)
Construct: host or cells: CFBE41o-, doxycycline-inducible
Experiment: CFTR cell surface levels using HRP-tagged ΔF508-CFTR expressing CFBE cells, in the presence of a co-corrector
Format: cell-based
Settings: HRP-tagged ΔF508-CFTR CFBE cells, in the presence of 3 μM co-corrector
The label depends only on % Activation: Satisfied if it is at least 400%, Not satisfied if it is smaller.

Example cases with answers are listed next.
>>> print(df.to_string())
                                   compound    group_label
0  COCCN(C)c1cc(C(=O)NS(C)(=O)=O)nc2c1c(C1CCC1)nn2-c1ccccc1  Not satisfied
1  COCCN(CCOC)c1ccc(-c2cc(C(=O)NS(C)(=O)=O)nc3c2c(C(C)C)nn3-c2ccnc(N3CCOCC3)c2)cn1  Not satisfied
2  COCCOCC1(F)CCCN(c2cc(C(=O)NS(C)(=O)=O)nc3c2c(C(C)C)nn3-c2ccc(F)cc2)C1 (stereo not shown)  Not satisfied

Reported % Activation at or above 400%? CCCN(C)S(=O)(=O)NC(=O)c1cc(N2CCC(N3CCN(C4CC4)CC3)CC2)c2c(C3CCC3)nn(-c3ccccc3)c2n1
Satisfied

Reported % Activation at or above 400%? CCS(=O)(=O)NC(=O)c1cc(-c2ccc(N3CC(N(C)C)C3)cc2)c2c(C)nn(-c3ccccc3)c2n1
Not satisfied

Reported % Activation at or above 400%? COCC1CCN(c2cc(C(=O)NS(C)(=O)=O)nc3c2c(C(C)C)nn3CC(C)C)CC1
Satisfied

Reported % Activation at or above 400%? COC(=O)N1CCC(COc2cc(C(=O)NS(C)(=O)=O)nc3c2c(C(C)C)nn3-c2ccc(F)cc2)CC1
Not satisfied

Sourced from patent US10259810B2
